Recorded values, source paper PMC6131760.

tested on: VERO cells; test: Cytotoxicity assay in Vero cells (MTT); type: cell-based, African green monkeys; details: Vero cells, MTT; read-out: CC50 VERO cells
Assay metric: CC50 (µM)
Provide only the numeric value, understood in µM.

Input: I have this compound here, Nc1nc(-c2ccc(Cl)c(Cl)c2)cs1 , and I need its recorded CC50.
Output: 255

Input: Fill blank: measured CC50 of the compound Cc1ccc(-c2csc(N)n2)cc1 is ____.
Output: 658

Input: What value of CC50 has been recorded for this entry: Nc1nc(-c2ccc(Cl)cc2)cs1
Output: 596

Input: Item Nc1nc(-c2ccc(C(F)(F)F)cc2)cs1 has what recorded CC50?
Output: 512

Input: Using the record for Nc1nc(-c2ccccc2)cs1 , report its CC50.
Output: 710

Input: Using the record for Nc1nc(-c2ccc(O)cc2)cs1 , report its CC50.
Output: 651

###

experiment: Cytotoxicity assay in Vero cells (MTT); format: cell-based, African green monkeys; details: African green monkey, Vero cells (monkey kidney cell line, ATCC CCL-81); Vero cells, MTT
Assay metric: CC50 (µM)
Report the figure in µM without appending any unit label.

Input: Need CC50 of CC(C)(C)c1ccc(-c2csc(N)n2)cc1 , thanks.
Output: 118

###

tested on: promastigotes of Leishmania amazonensis (MHOM/BR/1973/M2269); assay: Antileishmanial assay against promastigotes (PrestoBlue viability); type: cell-based; conditions: pIC50 = −log10 (IC50), L. amazonensis promastigotes
Kindly supply the reported pIC50 values for the records listed here.
I only need the number, thanks.

Input: Given the entry Cc1ccc(-c2csc(N)n2)cc1 , report its measured pIC50.
Output: 3.97

Input: Which pIC50 value belongs to Nc1nc(-c2ccc(Cl)cc2)cs1 ?
Output: 3.94

Input: Quick one: pIC50 of Nc1nc(-c2ccc(Cl)c(Cl)c2)cs1 ?
Output: 4.27

Input: Report pIC50 for Nc1nc(-c2ccc(C(F)(F)F)cc2)cs1 please.
Output: 4.27

Input: What does the record list as pIC50 for Nc1nc(-c2ccccc2)cs1 ?
Output: 3.02

Input: Record request: pIC50 value, item CCc1ccc(-c2csc(N)n2)cc1
Output: 4.33

###

Test system: THP1 cells
Test: Cytotoxicity assay in THP-1 cells differentiated into macrophages (PrestoBlue)
Assay type: cell-based, human
Description: The cytotoxicity was measured in L929 and THP1 cell lines using PrestoBlue®Cell Viability Reagent (Thermo Scientific, Invitrogen) as described by Lall et al. with modifications. […] The plates were incubated for further 2 h and the fluorescence was read at bottom using 540–570 nm excitation and 580–610 nm emission. […] In all cases, the CC50 was calculated as described as in the Antileishmanial assay Section. […]
Assay metric: CC50
Param answer (str): number followed by unit.

Input: I'd like to know its CC50. The compound in question is CCc1ccc(-c2csc(N)n2)cc1 [Compound 3]
Output: 117 µM

###

tested on: THP1 cells; assay: Cytotoxicity assay in THP-1 cells differentiated into macrophages (PrestoBlue); format: cell-based, human; conditions: PMA-differentiated THP-1, 48 h, PrestoBlue; read-out: CC50 THP1 cells
I'd be grateful if you could share measured CC50 for these entries.
Value expressed in µM; do not type the unit.

Input: What CC50 value was documented for this molecule, Nc1nc(-c2ccc(Cl)c(Cl)c2)cs1 ?
Output: 84.7

Input: // CC50 lookup, key: Nc1nc(-c2ccccc2)cs1
Output: 144

Input: So what does the record say about CC50 for Nc1nc(-c2ccc(Cl)cc2)cs1 ?
Output: 82.2

Input: Endpoint output: CC50 of Cc1ccc(-c2csc(N)n2)cc1 . Value?
Output: 135

Input: For Nc1nc(-c2ccc(C(F)(F)F)cc2)cs1 , what is its reported CC50?
Output: 92.2

###

system: L929 cells; test: Cytotoxicity assay in L929 cells (PrestoBlue); type: cell-based
Assay metric: CC50 (µM)
Quick note: give the figure in µM, leave out the unit.

Input: Can you look up the measured CC50 of CCc1ccc(-c2csc(N)n2)cc1 for me?
Output: 95.5

###

Assignment: determine reported CC50 for the given compounds.
test system: L929 cells; assay: Cytotoxicity assay in L929 cells (PrestoBlue); format: cell-based; conditions: L929 fibroblasts, 48 h, PrestoBlue; read-out: CC50 L929 cells
// units = µM; emit number, no label

Input: Can you look up the measured CC50 of Nc1nc(-c2ccc(C(F)(F)F)cc2)cs1 for me?
Output: 106

Input: Give the measured CC50 of Nc1nc(-c2ccc(Cl)c(Cl)c2)cs1 .
Output: 121

Input: # lookup: CC50 of Nc1nc(-c2ccc(Cl)cc2)cs1
Output: 115

Input: Could you share which CC50 value was measured for Nc1nc(-c2ccccc2)cs1 ?
Output: 198

Input: Fill in: CC50 of Cc1ccc(-c2csc(N)n2)cc1 is ___
Output: 160

###

system: VERO cells; test: Cytotoxicity assay in Vero cells (MTT); type: cell-based, African green monkeys
Assay metric: CC50 (µM)
Express the result in µM but write the number alone.

Input: Return CC50 measured with VERO cells given this molecule: CCc1ccc(-c2csc(N)n2)cc1 [Compound 3]
Output: 1220
